# tested_on: human JAK2 (a.a. 828-1132) (Homo sapiens)
# Construct: JAK2 (a.a. 828-1132); His tag (N); made in house; host or cells: insect cells (baculovirus)
# Sequence (O60674 828-1132): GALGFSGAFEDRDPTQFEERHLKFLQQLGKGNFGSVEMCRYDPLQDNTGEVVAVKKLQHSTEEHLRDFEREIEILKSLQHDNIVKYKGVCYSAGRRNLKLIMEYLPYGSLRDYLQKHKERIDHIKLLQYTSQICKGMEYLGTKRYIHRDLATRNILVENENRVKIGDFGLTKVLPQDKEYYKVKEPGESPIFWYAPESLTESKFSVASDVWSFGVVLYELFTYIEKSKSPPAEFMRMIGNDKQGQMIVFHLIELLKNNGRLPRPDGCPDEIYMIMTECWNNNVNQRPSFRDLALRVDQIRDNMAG
# experiment_summary: In vitro JAK kinase assay (HTRF, phosphorylation of a biotinylated peptide), JAK2
# Format: biochemical
# test_conditions: Table B1
pIC50: −log10 of the molar value. Where a name gives a salt, the structure may show the parent alone.
experimental_readout: pIC50

Some compounds with known pIC50 results, for comparison:
> print(dat)
                                   compound  experimental.readout  recorded.result
1  O=C(NCc1ccncc1)Nc1ccc2cc1CCc1cccc(c1)Nc1ncc(Cl)c(n1)N2                 pIC50             7.60
2  NC1CCN(c2ccnc(Nc3ccc4cc3CCc3cccc(c3)Nc3ncc(Cl)c(n3)N4)n2)CC1 [Example B281, tris(trifluoroacetate)]                 pIC50             6.82
3  O=C(Nc1ccc2cc1CCc1cccc(c1)Nc1ncc(Cl)c(n1)N2)c1ccsc1 [Example B62, trifluoroacetate]                 pIC50             8.72
4  O=C(Nc1ccc(N2CCOCC2)cc1)c1cc2cc(c1)Nc1nc(ncc1Cl)Nc1cccc(c1)CC2 [Example B9, trifluoroacetate]                 pIC50             6.89
5  CCCC(=O)Nc1ccc2cc1CCc1cccc(c1)Nc1ncc(Cl)c(n1)N2 [Example B56, trifluoroacetate]                 pIC50             8.70

(1) O=C(Nc1ccccc1)Nc1ccc2cc1CCc1cccc(c1)Nc1ncc(Cl)c(n1)N2 [Example B83, trifluoroacetate]
(2) Cc1ccc(Cl)cc1NC(=O)Nc1ccc2cc1CCc1cccc(c1)Nc1ncc(Cl)c(n1)N2 [Example B123, trifluoroacetate]
[ask] Among 1 and 2 , which shows a numerically higher pIC50 result? Kindly give the label for the entry you pick.
[reply] 1
(1: 8.77, 2: 7.82)
